System: ACHN renal
Experiment: NCI-60 one-dose screen, 48 h
Conditions: 10 µM unless noted
About 83,000 compounds went through this panel and 20% of them were active in at least one assay; those are over-represented in the sample as a whole. Calls of active or inactive are those of the source. The calls were made as follows: active = growth percent below 10; inactive = the rest.
Labels: TRUE for active, FALSE for inactive

> print(dat)
                                   compound  assigned.label
1  COC(=O)/C=C1\S/C(=N\NC(=O)c2cc3ccc2/C=C\c2ccc(cc2)/C=C\3)N(c2ccccc2)C1=O           FALSE
2               Cn1nc(CC#N)c2c(=N)n(N)cnc21           FALSE
3        COc1cc(CC(=O)c2ccc(O)c(OC)c2)ccc1O           FALSE
4  CC(=O)[C@H]1CCC/C=C/[C@@H]2C[C@H](O)C[C@H]2[C@H](O)/C=C/C(=O)O1            TRUE
5  COc1ccc(C(=O)c2cc(C)c(OC)c(C)c2)c(OC)c1OC(=O)C(Cl)Cl           FALSE
6  Cc1ccc(C(=O)/C(=C/c2ccc([N+](=O)[O-])cc2)SCc2ccc(Cl)cc2)cc1           FALSE
7  COc1ccc(C(=O)Nc2cccc(C3CCc4c(cc(OC)c(OC)c4OC)O3)c2)cc1 (configuration not stated)           FALSE

----------
Test system: UACC-257 melanoma
Assay: NCI-60 one-dose screen, 48 h (100 = growth as untreated, 0 = no growth, -100 = all killed)
Settings: 10 µM unless noted
Compounds without any hit were thinned out: in the full panel of roughly 83,000, 20% have a hit.
Measured growth, listed per entry.
Attribute measured: growth (%)

> print(dat)
                                   compound      tested.system  attribute.measured   val
1  Cc1cc2c(c(C)c1Cl)C(=O)/C(=C/c1ccc(O)c(O)c1)O2  UACC-257 melanoma              growth  97.7
2  NC(=S)N1N=C(c2ccccc2)CC1c1cn(-c2ccccc2)nc1-c1ccc(OCc2ccccc2)cc1 (stereo not drawn)  UACC-257 melanoma              growth  92.9
3  COC(=O)/C=C1\S/C(=N\NC(=O)c2cc3ccc2/C=C\c2ccc(cc2)/C=C\3)N(Cc2ccccc2)C1=O  UACC-257 melanoma              growth    81

----------
Measured growth, listed per entry.
System: BT-549 breast
Assay: NCI-60 one-dose screen, 48 h (100 = growth as untreated, 0 = no growth, -100 = all killed)
Details: 10 µM unless noted
This is part of a sample that, as a whole, favours compounds with a hit. Of some 83,000 tested, about 20% had one in any assay.

Compound	Tested system	growth [%]
O=C1c2cccc3c(-c4ccc5c(c4)ncn5C4CCCCC4)ccc(c23)C(=O)N1c1nc2ccccc2s1	BT-549 breast	95.8
Cc1cc2cc3ccc(N(C)C)cc3nc2cc1N	BT-549 breast	20.7
CCCOC(=O)N[C@H]1CCc2cc(OC)c(OC)c(OC)c2-c2ccc(SC)c(=O)cc21	BT-549 breast	10.2
CCCCCCOc1ccc(/C=N/Nc2cc(C)nc3ccc(Cl)cc23)cc1	BT-549 breast	109
CCOc1ccc(/C=N/Nc2cc(C)nc3ccc(Br)cc23)cc1	BT-549 breast	91.3
COc1cccc(-c2cc(C(=O)Nc3ccc(/C=C/c4ccc(OC5CCN(C)CC5)cc4)cc3)ccc2OC)c1	BT-549 breast	23.1
COCCCN1CC(O)=C(c2nc(-c3ccc(C)cc3)cs2)C1=N	BT-549 breast	103
COc1ccc2c(c1)oc1c(C)c3c(c(C)c12)C(=O)N(CCN1CCOCC1)C3=O	BT-549 breast	97.6
COC(=O)C(OC(C)=O)C(OC(C)=O)c1ccc(OC)c(OC)c1 (centres undefined)	BT-549 breast	104
O=C1Nc2cc(-c3ccc(NS(=O)(=O)c4ccccc4)cc3)ccc2/C1=C/c1ccc[nH]1	BT-549 breast	24.6
COC(=O)/C=C1\S/C(=N\NC(=O)c2cc3ccc2/C=C\c2ccc(cc2)/C=C\3)N(c2ccccc2)C1=O	BT-549 breast	35.5
NC(=O)Nc1ccc(-n2cnc3cc(-c4ccc(O)cc4)ccc32)cc1	BT-549 breast	88.2
CC[C@]12C=CCN3CC[C@@]4(c5cc(NC(=O)CCC(=O)O[C@H]6CC[C@H]7[C@@H]8CCC9=CC(=O)CC[C@@H]9[C@H]8CC[C@]67C)c(OC)cc5N(C)[C@H]4[C@@](O)(C(=O)OC)[C@@H]1OC(C)=O)[C@@H]32	BT-549 breast	77.6
CN1CCN(C(=O)[C@]23CCC(C)(C)C[C@H]2C2=CC[C@@H]4[C@@]5(C)C/C(=C/c6cccnc6)C(=O)C(C)(C)[C@@H]5CC[C@@]4(C)[C@]2(C)CC3)CC1	BT-549 breast	82

----------
System: U251 CNS
Assay: NCI-60 one-dose screen, 48 h (100 = growth as untreated, 0 = no growth, -100 = all killed)
Settings: 10 µM unless noted
About 83,000 compounds went through this panel and 20% of them were active in at least one assay; those are over-represented in the sample as a whole.
Measured growth, listed per entry.
Attribute measured: growth (%)

> print(dat)
                                    molecule  units.of.measure    val
 1  COc1cc2cc(CN3CCN(c4nccc(-c5ccc6ccccc6c5)n4)CC3)c(=O)[nH]c2cc1OC                 %   22.9
 2  CCNC(=O)Oc1ccc(/C(=C(\C)c2ccccc2)c2ccc(OCCN(CC)CC)cc2)cc1                 %   68.2
 3          CC(C)(C)c1cc(C=O)cc(C(C)(C)C)c1O                 %   96.3
 4                     COCc1cnccc1NC1CCCCCC1                 %    103
 5   Cc1cc2nc3c4cccc(O)c4n(CCN(C)C)c3nc2cc1C                 %   35.5
 6  O=c1[nH]nc(-c2ccccc2)c2sc3ncc(-c4ccc(Br)cc4)n3c12                 %   38.9
 7  Cc1ccc(C(=O)/C(=C/c2ccc([N+](=O)[O-])cc2)SCc2ccc(Cl)cc2)cc1                 %  -56.3
 8  O=C(/C=C(/C=C/c1coc2ccccc12)OB(F)F)/C=C/c1coc2ccccc12                 %   84.6
 9  O=[N+]([O-])c1ccc(NC(=S)N/N=C/c2cc3ccccc3n3nnnc23)cc1                 %   30.2
10  Cc1cc(C)c(S(=O)(=O)Oc2ccccc2[N+](=O)[O-])c(C)c1                 %   29.7
11  CCCCCCCC(=O)OCC/C=C/C1OC1C1OC(=O)/C=C\C=C\C(=O)N(C(C)=O)C(=O)/C=C(/C)CCC2OC2C1OC(=O)NC(C)=O (stereo not drawn)                 %   69.8
12  N#Cc1c(-c2ccccc2)nc2c(c(-c3ccccc3)nn2-c2ccccc2)c1-c1ccc(O)cc1                 %   24.3
13  COc1cc(/C=C\c2cc(OC)c(OC)c(OC)c2)cc(NC(=O)/C=C/c2cc(OC)c(OC)c(OC)c2)c1OC                 %     71

----------
Test system: HCT-116 colon
Test: NCI-60 one-dose screen, 48 h (100 = growth as untreated, 0 = no growth, -100 = all killed)
Settings: 10 µM unless noted
About 83,000 compounds went through this panel and 20% of them were active in at least one assay; those are over-represented in the sample as a whole.
Attribute measured: growth (%)

> print(dat)
                                    compound  tested.system  units.of.measure    val
 1  CC(C)=CCC[C@](C)(O)[C@H]1CC[C@]2(C)[C@@H]1CC[C@@H]1[C@@]3(C)C/C(=C/c4ccccc4)C(=O)C(C)(C)[C@@H]3CC[C@]12C  HCT-116 colon                 %   85.1
 2  C=CC(=O)N[C@@H](/C=C/C(=O)OCC)Cc1ccc(-c2cc(Cl)cc(Cl)c2)cc1  HCT-116 colon                 %   11.1
 3  CCOc1cccc(-c2nc(N)nc(Nc3ccccc3SSc3ccccc3Nc3nc(N)nc(-c4cccc(OCC)c4)n3)n2)c1  HCT-116 colon                 %   57.2
 4  CCCOC(=O)N[C@H]1CCc2cc(OC)c(OC)c(OC)c2-c2ccc(SC)c(=O)cc21  HCT-116 colon                 %   7.65
 5  COc1cc2cc(CN3CCN(c4nccc(-c5ccc6ccccc6c5)n4)CC3)c(=O)[nH]c2cc1OC  HCT-116 colon                 %  -25.4
 6  COc1cc(/C=C/C(=O)c2nc3cc(F)ccc3nc2C)cc(OC)c1OC  HCT-116 colon                 %   44.5
 7                     COCc1cnccc1NC1CCCCCC1  HCT-116 colon                 %    100
 8  NCCCCCCNc1cc(-c2cccc(OC(F)(F)F)c2)nc2ccc(N3CCCC3)cc12  HCT-116 colon                 %  -63.3
 9  CCN1C(=O)N(CC)C2Nn3c(s/c(=C\c4ccc(OC)cc4)c3=O)=NC21 (centres undefined)  HCT-116 colon                 %   29.4
10  COc1cc(C2C3=C(COC3=O)N(CCO)c3cc4c(cc32)OCO4)cc(OC)c1OC (centres undefined)  HCT-116 colon                 %   4.34
11  CNCCn1c(=O)c2cc(OC)c(OC)cc2c2ccc3cc4c(cc3c21)OCO4  HCT-116 colon                 %   2.87
12                Oc1ccc(OCCOc2ccc(O)cc2)cc1  HCT-116 colon                 %   55.9
13  CCOC(=O)Nc1ccc(-c2ccc3c(c2)NC(=O)/C3=C\c2ccc[nH]2)cc1  HCT-116 colon                 %    107
14  COc1cccc(C(=O)NNc2nc(Cl)nc(N3CCN(C(c4ccccc4)c4ccccc4)CC3)n2)c1  HCT-116 colon                 %   39.2
